- method notes: in vitro
- measurement parameters: mouse, s9
- Description: Decreased plating efficiency and cell lysis are considered indications of cytotoxic effects.
quantity kind: CC50 (µM)
Answers are plain numbers, in µM.

*Q* Requested read-out: CC50. Entry: CC1=C(/C=C/C(C)=C/C=C/C(C)=C/C=O)C(C)(C)CCC1 [retinal]
*A* 4

====

- method notes: Direct solubilization of retinoids by cyclodextrins and their derivatives
- Type: physicochemical
- measurement parameters: buffered saline with α-cyclodextrin, α-cyclodextrin, 50 mg/ml; read-out: Solubility of retinoid in physiological buffered saline
quantity kind: solubility
Write the figure, then the unit, nothing else.

Dear colleague, could you please provide solubility for the compounds listed below?
1. CC1=C(/C=C/C(C)=C/C=C/C(C)=C/C(=O)O)C(C)(C)CCC1 [retinoic acid]
2. CC1=C(/C=C/C(C)=C/C=C/C(C)=C/C=O)C(C)(C)CCC1 [retinal]

*A*
["140 µg/mL", "4 µg/mL"]
